Data provenance is the supplement of paper PMC9170038.

System: MS2 coat protein
Assay: apparent KD of MS2 coat protein, switch ON state; designed switch direction (-1 OFF switch, 1 ON switch): 1; higher = weaker reporter binding
Conditions: FMN input: 0 or 200 uM; Eterna round: R93 (includes R88 designs)
Consider the following sequences; for each one, report its apparent KD of MS2 coat protein.
Respond with the bare value in nM.

-- ask Supply reported apparent KD of MS2 coat protein belonging to this sequence: AUAAAACAUGAGGAUCACCCAUGUAGAAAUAUGGGAGGAUAUACUAGAUCGAAAGAUCUAGUAGAAGGCCUUUAUA [JL Mod of Eli 6]
-- reply 19.9

-- ask Supply reported apparent KD of MS2 coat protein belonging to this sequence: AAAAAAAAAAGUCAGGAUAUACAAAUUUUUACAUGAGGAUCACCCAUGUUAAGGAAAAAAAAAAAGUAGAAGGGACAAAAAAAAAA [Same State 2 - Omei 3]
-- reply 15.3

-- ask Supply reported apparent KD of MS2 coat protein belonging to this sequence: CGGAAGGAGAGAGAGGAUAUCCAAAGGAAAACAUGAGGAUCACCCAUGUAGAAGGUAGGAAAUUGGGAGAAGGCUCAAGAGACAG [salish99-ss2-125]
-- reply 25.3
